Source: patent US5474921A

- Tested system: PLCγ1 (Rattus norvegicus)
- Construct: made in house; host or cells: E. coli BL21 (DE3)
- Sequence (P10686 with tags, fused parts or gaps limits assumed): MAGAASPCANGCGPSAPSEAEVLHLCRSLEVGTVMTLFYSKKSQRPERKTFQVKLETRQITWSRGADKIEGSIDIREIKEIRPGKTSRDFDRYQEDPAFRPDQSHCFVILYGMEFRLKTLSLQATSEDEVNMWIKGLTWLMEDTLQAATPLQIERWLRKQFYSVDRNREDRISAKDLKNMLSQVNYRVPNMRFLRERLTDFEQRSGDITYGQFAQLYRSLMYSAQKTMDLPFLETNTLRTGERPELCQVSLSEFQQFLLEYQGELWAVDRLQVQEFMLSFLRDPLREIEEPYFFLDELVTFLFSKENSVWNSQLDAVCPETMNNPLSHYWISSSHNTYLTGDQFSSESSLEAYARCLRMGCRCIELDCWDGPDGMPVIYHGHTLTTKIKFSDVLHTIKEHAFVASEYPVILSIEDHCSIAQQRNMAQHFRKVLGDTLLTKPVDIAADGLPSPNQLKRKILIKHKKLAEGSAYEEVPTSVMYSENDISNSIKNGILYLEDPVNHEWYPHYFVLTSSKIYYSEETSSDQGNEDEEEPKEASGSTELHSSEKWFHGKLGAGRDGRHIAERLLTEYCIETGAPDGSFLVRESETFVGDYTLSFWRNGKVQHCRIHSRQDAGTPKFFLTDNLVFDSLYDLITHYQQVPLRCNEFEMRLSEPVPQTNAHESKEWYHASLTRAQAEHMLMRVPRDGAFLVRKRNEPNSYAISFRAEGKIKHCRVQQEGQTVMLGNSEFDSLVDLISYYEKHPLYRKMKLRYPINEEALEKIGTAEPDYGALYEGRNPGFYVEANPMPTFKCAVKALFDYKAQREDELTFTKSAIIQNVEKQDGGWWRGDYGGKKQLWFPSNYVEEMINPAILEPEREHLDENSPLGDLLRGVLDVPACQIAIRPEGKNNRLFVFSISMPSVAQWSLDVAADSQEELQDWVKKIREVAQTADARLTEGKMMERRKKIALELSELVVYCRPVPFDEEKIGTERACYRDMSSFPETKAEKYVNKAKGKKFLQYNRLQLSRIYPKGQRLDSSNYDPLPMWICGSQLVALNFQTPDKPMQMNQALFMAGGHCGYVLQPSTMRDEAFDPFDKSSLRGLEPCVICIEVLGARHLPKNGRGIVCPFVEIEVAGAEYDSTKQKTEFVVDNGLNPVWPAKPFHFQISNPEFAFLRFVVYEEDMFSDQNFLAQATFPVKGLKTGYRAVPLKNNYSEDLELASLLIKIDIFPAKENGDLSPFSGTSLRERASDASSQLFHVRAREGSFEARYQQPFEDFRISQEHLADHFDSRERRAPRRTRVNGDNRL
- Test method notes: Assay of inhibitory activity of compounds against PLCγ1 (hydrolysis of [3H]-phosphatidyl inositol by purified bacterially expressed PLCγ1)
- Format: biochemical
- Run parameters: Table 2; 30° C., pH 7.5, 0.1% deoxycholate; compound included prior to addition of enzyme
- Source text: Subcloning of the PLCγ1 Coding Sequence. Rat brain cDNA is synthesized using rat brain poly(A)RNA as template by literature protocol (Sambrook, J. et al., Molecular Cloning: A Laboratory Manual, Cold Spring Harbor Laboratory Press, Cold Spring Harbor, N.Y.). […]
Observation type: IC50

Reference set (2 entries):
| Compound | IC50 |
| --- | --- |
| COc1cccc(Oc2ccc(C(O)P(=O)(O)O)cc2)c1 (stereo not drawn) [drawing 2: R3=H, R4=OCH3, R5=H] | 8 µM |
| O=P(O)(O)C(O)c1ccc(Oc2cccc(Cl)c2)cc1 (stereo not drawn) [drawing 2: R3=H, R4=Cl, R5=H] | 5 µM |

Exercise: Look up and state reported IC50 for CCc1cccc(Oc2ccc(C(O)P(=O)(O)O)cc2)c1 (stereo not drawn) [drawing 2: R3=H, R4=CH2CH3, R5=H]
Solution: 37 µM
